- Species on record: Oryctolagus cuniculus
- Test description: Tested in vitro for the maximal rate of platelet aggregation induced by platelet activating factor (10 e-7 mol/L) at a dose of 10 e6 mol/L in rabbit blood
- Type: functional
Where a SMILES comes first, the peptide text is derived from it. [ ]: non-standard residue; d: D form. Tpi = O=C(O)[C@@H]1Cc2c([nH]c3ccccc23)CN1
Measured endpoint: Am (%)
Your answer should be a plain number; it is taken to be in %.

Observe how each entry below is paired with its result.
Compound	Unit text	Am
NC(N)=NCCC[C@H](N)C(=O)NCC(=O)N[C@@H](CC(=O)O)C(=O)N[C@@H](Cc1ccccc1)C(=O)O (H-RGDF-OH)	%	23.8
CC(C)[C@H](NC(=O)[C@H](CC(=O)O)NC(=O)CNC(=O)[C@H](CCCN=C(N)N)NC(=O)[C@@H]1Cc2c([nH]c3ccccc23)CN1)C(=O)O (H-[Tpi]RGDV-OH)	%	35.05
N=C(N)NCCC[C@H](N)C(=O)NCC(=O)N[C@@H](CC(=O)O)C(=O)NC(CO)C(=O)O (single isomer, unassigned)	%	36.15
CC(C)[C@H](NC(=O)[C@H](CC(=O)O)NC(=O)CNC(=O)[C@@H](N)CCCN=C(N)N)C(=O)O (H-RGDV-OH)	%	34.17
N=C(N)NCCC[C@H](NC(=O)[C@@H]1Cc2c([nH]c3ccccc23)CN1)C(=O)NCC(=O)N[C@@H](CC(=O)O)C(=O)N[C@@H](CO)C(=O)O (H-[Tpi]RGDS-OH)	%	34.15
O=C(O)[C@@H]1Cc2c([nH]c3ccccc23)CN1	%	50.18

Moving on to the next compound.
## Task Find the recorded Am belonging to N=C(N)NCCC[C@H](NC(=O)[C@@H]1Cc2c([nH]c3ccccc23)CN1)C(=O)NCC(=O)N[C@@H](CC(=O)O)C(=O)N[C@@H](Cc1ccccc1)C(=O)O (H-[Tpi]RGDF-OH) and report it.
## Result 25.54

* * *

In this section, each of the molecules is paired with its reported Am.
- Species: Oryctolagus cuniculus
- Test description: Tested in vitro for maximal rate of platelet aggregation induced by adenosine diphosphate (10 e5 mol/L) at a dose of 10 e5 mol/L in rabbit blood
- Assay type: functional
Where a SMILES comes first, the peptide text is derived from it. [ ]: non-standard residue; d: D form. Tpi = O=C(O)[C@@H]1Cc2c([nH]c3ccccc23)CN1
// unit must come after the numeric part

Study these solved cases before continuing.
Molecule	Measured endpoint	Test value
CC(C)[C@H](NC(=O)[C@H](CC(=O)O)NC(=O)CNC(=O)[C@H](CCCN=C(N)N)NC(=O)[C@@H]1Cc2c([nH]c3ccccc23)CN1)C(=O)O (H-[Tpi]RGDV-OH)	Am	10.75%
CC(C)[C@H](NC(=O)[C@H](CC(=O)O)NC(=O)CNC(=O)[C@@H](N)CCCN=C(N)N)C(=O)O (H-RGDV-OH)	Am	9.8%

## Task For the molecule shown here, N=C(N)NCCC[C@H](NC(=O)[C@@H]1Cc2c([nH]c3ccccc23)CN1)C(=O)NCC(=O)N[C@@H](CC(=O)O)C(=O)N[C@@H](CO)C(=O)O (H-[Tpi]RGDS-OH) , give the reported Am.
## Result 16.11%

* * *

- Species: Oryctolagus cuniculus
- Test description: Tested in vitro for maximal rate of platelet aggregation induced by adenosine diphosphate (10 e5 mol/L) at a dose of 10 e5 mol/L in rabbit blood
- Assay type: functional
Where a SMILES comes first, the peptide text is derived from it. [ ]: non-standard residue; d: D form. Tpi = O=C(O)[C@@H]1Cc2c([nH]c3ccccc23)CN1
Measured endpoint: Am

Study these solved cases before continuing.
Compound	Test value
N=C(N)NCCC[C@H](NC(=O)[C@@H]1Cc2c([nH]c3ccccc23)CN1)C(=O)NCC(=O)N[C@@H](CC(=O)O)C(=O)N[C@@H](Cc1ccccc1)C(=O)O (H-[Tpi]RGDF-OH)	9.01%
O=C(O)[C@@H]1Cc2c([nH]c3ccccc23)CN1	24.6%
N=C(N)NCCC[C@H](N)C(=O)NCC(=O)N[C@@H](CC(=O)O)C(=O)NC(CO)C(=O)O (single isomer, unassigned)	14.22%

# input for lookup
## Task Need Am of NC(N)=NCCC[C@H](N)C(=O)NCC(=O)N[C@@H](CC(=O)O)C(=O)N[C@@H](Cc1ccccc1)C(=O)O (H-RGDF-OH) , thanks.
## Result 7.36%
